Parameter: Antihypertensive activity (index). Scope: all listed entries.
assay-text: Antihypertensive activity, oral, unanesthetized spontaneously hypertensive rats
Assay type: in vivo
cond: 60 mg/kg oral; systolic pressure difference (cmHg) every 30 min multiplied by time coefficient 1 to 6
Where a name gives a salt, the structure may show the parent alone.
readout-type: Antihypertensive activity (index)

compound	readout-type	readout-number
COc1ccc2[nH]c(-c3ccc(OCC(O)CNC(C)C)cc3)nc2c1 (stereo not drawn)	Antihypertensive activity (index)	59
CC(C)NCC(O)COc1ccc(-c2nc3ccccc3[nH]2)cc1 (stereo not drawn) [Compound 1]	Antihypertensive activity (index)	174
CC(C)(C)NCC(O)COc1ccc(-c2nc3ccccc3[nH]2)cc1 (stereo not drawn)	Antihypertensive activity (index)	192
CC(C)NCC(O)COc1ccc(-c2nc3ccccc3[nH]2)cc1 (stereo not drawn) [Compound 12]	Antihypertensive activity (index)	160
Cc1cc2nc(-c3ccc(OCC(O)CNC(C)C)cc3)[nH]c2cc1C (stereo not drawn)	Antihypertensive activity (index)	110
CC(C)NCC(O)COc1ccc(-c2nc3cc(Cl)ccc3[nH]2)cc1 (stereo not drawn)	Antihypertensive activity (index)	90
COc1ccc(CCNCC(O)COc2ccc(-c3nc4ccccc4[nH]3)cc2)cc1OC (stereo not drawn)	Antihypertensive activity (index)	34
OC(CNCCOc1ccccc1)COc1ccc(-c2nc3ccccc3[nH]2)cc1 (stereo not drawn)	Antihypertensive activity (index)	50
OC(CNC1CCCCC1)COc1ccc(-c2nc3ccccc3[nH]2)cc1 (stereo not drawn)	Antihypertensive activity (index)	83
Cc1ccc2[nH]c(-c3ccc(OCC(O)CNC(C)C)cc3)nc2c1 (stereo not drawn) [Compound 14, (hydrochloride)]	Antihypertensive activity (index)	83
CC(C)NCC(O)COc1ccc(-c2nc3c([N+](=O)[O-])cccc3[nH]2)cc1 (stereo not drawn)	Antihypertensive activity (index)	89
CC(CCc1ccccc1)NCC(O)COc1ccc(-c2nc3ccccc3[nH]2)cc1 (stereo not drawn)	Antihypertensive activity (index)	18
